Tested on: MST3;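 also: KINOMEscan kinase panel screen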
Construct: gene STK24
Conditions: concentration: 1 μM, replicates: in singlicate; n = 1
Listed below: %Inh values for each entry.
Numeric only. Scale: %

These recorded examples may help you get a feel for the data.
| compound | measurement |
| --- | --- |
| COc1ccc(Nc2nccc(NCCNC(=O)Nc3ccccc3F)n2)cc1 [GSK1379901] | 0 |
| CS(=O)(=O)c1ccc(-c2nc3n(c2-c2ccncc2)CCC3)cc1 [SKF-105942] | 0 |
| COC(=O)c1c(-c2ccccc2)c2cc(C(=O)O)ccc2c(=O)n1Cc1ccccc1 | 0 |

Exercise: Form field: %Inh recorded for O=C(Nc1n[nH]c2nc(-c3nccs3)c(Br)cc12)C1CC1 [SB-742251] with MST3 (enter value)
Solution: 0

Exercise: Form field: %Inh recorded for C[C@@H]1CCCCN1c1cc(-c2ccc3c(N)n[nH]c3c2)nc(N)n1 [GSK2258759] with MST3 (enter value)
Solution: 7

Exercise: Form field: %Inh recorded for COc1ccc(CNC(=O)NC2CCN(c3ccnc(Nc4cc(OC)c(OC)c(OC)c4)n3)C2)cc1 (stereo not drawn) [GSK1379748] with MST3 (enter value)
Solution: 0

Exercise: Form field: %Inh recorded for CCn1c(-c2ccccn2)nc2cnccc21 [SB-736398] with MST3 (enter value)
Solution: 0

Exercise: Form field: %Inh recorded for `Fc1cccc(COc2nnc(-c3ccc4c(c3)CCO4)o2)c1` with MST3 (enter value)
Solution: 25

Exercise: Form field: %Inh recorded for Cc1cc(N2Cc3ccccc3C2)nc(Nc2ccc(S(=O)(=O)N3CCOCC3)cc2)n1.Cl [GSK1669917] with MST3 (enter value)
Solution: 0
